Read-out: Glutathione S-Transferase (GSTA2), GSTA2 (gene 2939)
Test: LTEA_HepaRG_GSTA2: Life Technologies and Expression Analysis (LTEA) Assay for Glutathione S-Transferase (GSTA2) using HepaRG (AID 2283497)
Conditions: mRNA level, 48 h; actives raise or lower the signal
Method: LTEA_HepaRG is a cell based, multiplexed-readout assay that uses HepaRG, a human liver cell line, with measurements taken at 48 hours after chemical dosing on a 96-well plate.LTEA_HepaRG_GSTA2 is one of 102 assay component(s) measured in the LTEA HepaRG cell culture assay. It is a marker of Oxidative Stress.Data from the assay component LTEA_HepaRG_GSTA2 was analyzed into 1 endpoint. […]
Calls of active or inactive are those of the source. How the source made its calls: active means hit-call score of the fitted dose curve at least 0.9, where 1 is the maximum; inactive means score below 0.9.
Assign a class; possible classes are active, inactive

[
  {
    "smiles-record": "Oc1cc(Cl)c(Cl)cc1Cl",
    "class-name": "inactive"
  },
  {
    "smiles-record": "Cc1cc(C)cc(C)c1",
    "class-name": "inactive"
  },
  {
    "smiles-record": "CCCCCCCCCCCCc1cccc(S(=O)(=O)O)c1",
    "class-name": "inactive"
  },
  {
    "smiles-record": "Clc1cccc(Cl)c1",
    "class-name": "inactive"
  },
  {
    "smiles-record": "OCCN(CCO)CCO",
    "class-name": "inactive"
  }
]

Lookup: What outcome does the record of this test show for O=C(O)C1(c2ccc3c(c2)OC[C@H](Cc2ccc(-c4ccccc4)cc2)[C@H]3O)CCCC1 ?
Found: active

Lookup: // same read-out, input: CC(C)(C)c1ccccc1O
Found: inactive

Lookup: Can you check Clc1cccc(Cl)c1Cl next?
Found: inactive

Lookup: Please answer likewise for COc1ccccc1N
Found: inactive

Lookup: Also O=C(N[C@H]1CN2CCC1CC2)c1ccc2c(c1)OCCO2 , if possible.
Found: inactive

Lookup: Next entry: N#Cc1cccnc1
Found: inactive

====

assay: ATG_GRE_CIS: Attagene CIS-FACTORIAL HepG2 Assay for human Glucocorticoid Response Elements (GRE) (AID 2282947); settings: HepG2 GRE cis-reporter, Attagene multiplex mRNA; actives raise or lower the signal
The source made the active and inactive calls. Rule for the calls: active = hit-call score of the fitted dose curve at least 0.9, where 1 is the maximum; inactive = score below 0.9.
The reply should be one of these categories: active, inactive

Take a look at these entries with their results.
[
  {
    "compound": "CC(C)CP(=S)(S)CC(C)C",
    "class-name": "inactive"
  },
  {
    "compound": "O=C(NC(=O)c1c(F)cccc1F)Nc1cc(Cl)c(OC(F)(F)C(F)C(F)(F)F)cc1Cl (centres undefined)",
    "class-name": "inactive"
  },
  {
    "compound": "Nc1ncn[nH]1",
    "class-name": "inactive"
  }
]

Lookup: Dear all, I need the recorded test outcome for CCN(CCO)CCO , thank you.
Found: inactive

Lookup: Try the compound O=C1c2ccccc2C(=O)C1C(=O)C(c1ccccc1)c1ccc(Cl)cc1 (centres undefined)
Found: inactive

Lookup: For Cl[C@H]1OCCO[C@@H]1Cl then?
Found: inactive

Lookup: Cool, now ClCCN1CCOCC1
Found: inactive

Lookup: Note, next up: C[CH2][Hg][S]c1ccccc1C(=O)O
Found: inactive

Lookup: // next record C=CCOC(F)(C(F)(F)F)C(F)(F)F
Found: inactive

Lookup: Try this compound too: O=S1(=O)OC(c2cc(Br)c(O)c(Br)c2)(c2cc(Br)c(O)c(Br)c2)c2ccccc21
Found: inactive

Lookup: Proceed to CCOP(=S)(OCC)SCS(=O)(=O)C(C)(C)C
Found: inactive

Lookup: Could you do the same for CCCCCCCCCCCCCCC(Br)C(=O)O (centres undefined) , please?
Found: active

Lookup: One more compound: CN(CCCC(O)c1cccnc1)N=O (centres undefined)
Found: inactive

Lookup: How about Nc1nc(=S)[nH][nH]1 ?
Found: inactive
